Cited source: ChEMBL document CHEMBL3784941

experiment: Inhibition of recombinant Salmonella typhimurium His10-tagged OASS-B expressed in Escherichia coli using OAS as substrate by discontinuous assay; set-up: species or system Salmonella enterica subsp. enterica serovar Typhimurium
pIC50: −log10 of the molar value.
Outcome measure: pIC50

(I) O=C(O)[C@]1(Cc2ccc(Cl)cc2)C[C@H]1c1ccccc1
(II) O=C(O)[C@@]1(Cc2ccc(Cl)cc2)C[C@@H]1c1ccccc1
Hey, between I and II which has a smaller measured pIC50? Kindly give the label for the entry you pick.
II

* * *

experiment: Binding affinity to recombinant Salmonella typhimurium His6-tagged OASS-A expressed in Escherichia coli by fluorimetric titration method; design: species or system Salmonella enterica subsp. enterica serovar Typhimurium
Outcome measure: pKd
Scale: pKd equals -log10([C]), with [C] in mol/L.

Examples with their reported pKd follow.
O=C(O)[C@@]1(CCc2ccccc2)C[C@@H]1c1ccccc1 (relative stereo)	4.85
CC[C@]1(C(=O)O)C[C@@H]1c1ccccc1 (racemic)	4.82

Next compound, please.
Lab note: `Cc1ccc(C[C@@]2(C(=O)O)C[C@H]2c2ccccc2)cc1` gave pKd of 7.55
